# Test system: DLD1 NRF2-WT
# STUDY CONDITIONS: 72 h; CellTiter-Glo viability
Attribute: EC50 viability

Illustrative cases are given below, each with its answer.
CC[C@H](C)C(=O)O[C@H]1C[C@H](O)C=C2C=C[C@H](C)[C@H](CC[C@@H](O)C[C@@H](O)CC(=O)O)[C@H]21 | > 10 µM
CC(O)c1cc(C(=O)N[C@@H](C)Cn2ccc(-c3ccc(C#N)c(Cl)c3)n2)n[nH]1 (stereo partly specified) | > 2.5 µM
Cn1ncc(Cl)c1-c1cc(C(=O)N[C@H](CN)Cc2ccc(F)c(F)c2)oc1Cl | > 10 µM
CCCS(=O)(=O)Nc1ccc(F)c(C(=O)c2c[nH]c3ncc(-c4ccc(Cl)cc4)cc23)c1F | > 10 µM
C=C(c1ccc(C(=O)O)cc1)c1cc2c(cc1C)C(C)(C)CCC2(C)C | > 10 µM

# evaluate next
Which EC50 viability is reported for this molecule? CCCCOc1nc(N)c2c(n1)N(Cc1cccc(CN3CCCC3)c1)CC(=O)N2
> 10 µM

====

Attribute: EC50 viability
# Test system: DLD1 NRF2-WT
# STUDY CONDITIONS: 72 h; CellTiter-Glo viability

CCN1CCN(c2ccc(Nc3cc(N(C)C(=O)Nc4c(Cl)c(OC)cc(OC)c4Cl)ncn3)cc2)CC1 | > 1 µM

Which EC50 viability is reported for this compound? Cc1ccc(NC(=O)c2ccc(CN3CCN(C)CC3)cc2)cc1Nc1nc(-c2cccnc2)cs1
1.8 µM

Which EC50 viability is reported for this compound? CC[C@H](C)C(=O)O[C@H]1C[C@@H](C)C=C2C=C[C@H](C)[C@H](CC[C@@H]3C[C@@H](O)CC(=O)O3)[C@H]21
> 10 µM

Which EC50 viability is reported for this compound? CC[C@H](Nc1ncnc2[nH]cnc12)c1nc2cccc(F)c2c(=O)n1-c1ccccc1
> 10 µM

Which EC50 viability is reported for this compound? COc1cc(C)[nH]c(=O)c1CNC(=O)c1c(C)n([C@H](C)C2CCOCC2)c2ccccc12
> 10 µM

====

# Tested on: DLD1 NRF2-WT
# STUDY CONDITIONS: 72 h; CellTiter-Glo viability
READOUT KIND: EC50 viability

Illustrative cases are given below, each with its answer.
Cc1cccc(-c2nn3c(c2-c2ccnc4ccc(C(N)=O)cc24)CCC3)n1 | > 1 µM
Cc1c(N)nc([C@H](CC(N)=O)NC[C@H](N)C(N)=O)nc1C(=O)N[C@H](C(=O)N[C@H](C)[C@@H](O)[C@H](C)C(=O)N[C@H](C(=O)NCCc1nc(-c2nc(C(=O)NCCC[S+](C)C)cs2)cs1)[C@@H](C)O)[C@@H](O[C@@H]1O[C@@H](CO)[C@@H](O)[C@H](O)[C@@H]1O[C@H]1O[C@H](CO)[C@@H](O)[C@H](OC(N)=O)[C@@H]1O)c1c[nH]cn1 | > 10 µM
CNC(=O)c1ccc(-c2cnc3ncc(Cc4ccc5ncccc5c4)n3n2)cc1F | > 1 µM
COc1cc2nccc(Oc3ccc(NC(=O)C4(C(=O)Nc5ccc(F)cc5)CC4)cc3)c2cc1OC [Cabozantinib] | > 1 µM
CCN(CC)CCN(Cc1ccc(-c2ccc(C(F)(F)F)cc2)cc1)C(=O)Cn1c(SCc2ccc(F)cc2)nc(=O)c2c1CCC2 | > 1 µM
CCOc1ccccc1-n1c(C(C)N2CCN(C(=O)COc3ccc(Cl)cc3)CC2)nc2ccccc2c1=O (configuration not stated) | > 10 µM

# evaluate next
Query for DLD1 NRF2-WT: what EC50 viability does the record show for CN[C@@H](C)C(=O)N[C@H](C(=O)N1CCC[C@H]1c1nc(C(=O)c2ccc(F)cc2)cs1)C1CCCCC1 ?
> 25 µM
